Biological target: UniProt P21731
Sequence (P21731 whole entry): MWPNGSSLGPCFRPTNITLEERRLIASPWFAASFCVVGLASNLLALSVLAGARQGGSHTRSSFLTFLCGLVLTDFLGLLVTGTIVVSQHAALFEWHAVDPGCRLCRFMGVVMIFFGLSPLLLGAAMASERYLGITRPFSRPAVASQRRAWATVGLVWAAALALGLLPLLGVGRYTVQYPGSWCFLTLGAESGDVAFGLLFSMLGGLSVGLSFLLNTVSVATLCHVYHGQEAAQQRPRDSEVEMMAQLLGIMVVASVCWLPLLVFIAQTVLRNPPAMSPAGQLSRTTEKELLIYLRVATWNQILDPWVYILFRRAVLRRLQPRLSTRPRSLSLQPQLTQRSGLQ
Experiment: Inhibitory concentration against radioligand [3H]SQ-29,548 (5 nM) binding to TP receptors in human platelets
assayEndpoint: pKi
Just so you know, pKi here is -log10 of the concentration in molar units; reply with that number alone.

In plain terms, "COc1cc(N=C2NCCc3cc(O)c(O)cc32)cc(OC)c1OC" has a documented pKi of 3.92

In plain terms, O=[N+]([O-])c1cc(CC2NCCc3cc(O)c(O)cc32)ccc1O (stereo not given) has a documented pKi of 6.47

In plain terms, Nc1ccc(CC2NCCc3cc(O)c(O)cc32)cc1 (stereo not given) has a documented pKi of 4.46

In plain terms, O=[N+]([O-])c1ccc(CC2NCCc3cc(O)c(O)cc32)cc1 (stereo not given) has a documented pKi of 5.02

In plain terms, COc1cc(CC2c3cc(O)c(O)cc3CCN2CCc2ccccc2)cc(OC)c1OC (stereo not given) has a documented pKi of 4.79

From: ChEMBL document CHEMBL1130381
